target: KOP receptor (Homo sapiens, UniProt P41145); experiment: G protein bias from BRET-based G protein activation and arrestin recruitment assays; format: cell-based
Sequence (P41145 whole entry): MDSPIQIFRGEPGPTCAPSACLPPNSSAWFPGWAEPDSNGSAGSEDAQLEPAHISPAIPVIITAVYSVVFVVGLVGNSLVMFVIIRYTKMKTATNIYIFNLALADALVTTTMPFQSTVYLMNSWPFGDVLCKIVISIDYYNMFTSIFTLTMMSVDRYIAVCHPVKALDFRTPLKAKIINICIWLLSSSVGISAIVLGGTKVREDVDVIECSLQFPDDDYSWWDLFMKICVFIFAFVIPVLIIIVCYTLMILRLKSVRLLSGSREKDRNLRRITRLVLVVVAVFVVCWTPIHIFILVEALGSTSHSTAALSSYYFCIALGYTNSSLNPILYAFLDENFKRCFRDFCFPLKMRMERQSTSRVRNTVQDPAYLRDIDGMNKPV
experimental.readout: bias toward G protein activation over arrestin

- CC[C@]12CCN(CC3CC3)[C@H](C(=O)c3ccc(O)cc31)[C@@H]2C: non-biased
- O=C(N[C@@H]1CC[C@@]2(O)C3Cc4ccc(O)c5c4[C@@]2(CCN3CC2CC2)[C@H]1O5)c1ccc2ccccc2c1: non-biased

* * *

pKi: −log10 of the molar value.
Below are compounds with their pKi as measured on MOP receptor (Homo sapiens, UniProt P35372).
Sequence (P35372 whole entry): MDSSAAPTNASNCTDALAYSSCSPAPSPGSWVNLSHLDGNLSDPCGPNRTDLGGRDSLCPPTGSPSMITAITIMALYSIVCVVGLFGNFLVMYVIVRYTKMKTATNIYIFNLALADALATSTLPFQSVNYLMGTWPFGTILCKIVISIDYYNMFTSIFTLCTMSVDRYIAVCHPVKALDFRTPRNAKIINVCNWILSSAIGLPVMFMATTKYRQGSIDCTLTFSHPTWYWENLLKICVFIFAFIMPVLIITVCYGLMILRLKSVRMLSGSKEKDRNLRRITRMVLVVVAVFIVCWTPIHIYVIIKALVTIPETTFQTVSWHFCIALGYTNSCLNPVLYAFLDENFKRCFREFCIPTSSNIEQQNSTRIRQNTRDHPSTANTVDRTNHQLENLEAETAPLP
experimental.readout: pKi

• CN(CC(=O)NC1CCN(Cc2ccccc2)C1)Cc1ccco1 (stereo not shown) [MCKK-5] = 3.37
• O=C(CN1CCC[C@@H]1C(=O)Nc1nccs1)Nc1cccc(F)c1 [MCKK-17R] = 3.29
